Entries and their pA50
# Test target: T1, human corticotrophin releasing hormone receptor type 2 (CRHR2) (human, UniProt Q13324 1-411)
# T1 sequence (looked up): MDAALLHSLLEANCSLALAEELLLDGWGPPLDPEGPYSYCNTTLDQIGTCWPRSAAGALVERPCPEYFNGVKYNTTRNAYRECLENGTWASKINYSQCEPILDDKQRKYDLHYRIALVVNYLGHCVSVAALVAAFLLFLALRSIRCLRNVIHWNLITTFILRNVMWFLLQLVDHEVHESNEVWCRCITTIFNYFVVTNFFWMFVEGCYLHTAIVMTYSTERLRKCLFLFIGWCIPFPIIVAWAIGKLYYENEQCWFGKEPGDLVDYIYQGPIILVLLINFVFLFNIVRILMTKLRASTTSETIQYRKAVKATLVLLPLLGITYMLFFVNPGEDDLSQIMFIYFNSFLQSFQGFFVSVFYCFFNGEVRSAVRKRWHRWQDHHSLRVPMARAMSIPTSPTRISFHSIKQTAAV
# Protocol details: cell-based or functional assay
Where no end group is shown, it is not given here.
Recorded metric: pA50

INSERT INTO measurements (binder, reported) VALUES
  ('TKFTLSLDVPCNIMNLLFNIAKAKNLRAQAAANAHLMAQI-NH2 [Cys-variant stresscopin-like peptide SEQ ID NO: 12]', '7.86 -log10(M)'),
  ('TKFTLSLDVPTCIMNLLFNIAKAKNLRAQAAANAHLMAQI (NES-PEG (about 20 kDa) on Cys 12; C-terminal amide (-NH2)) [Pegylated Cys-variant stresscopin-like peptide with NES linker and PEG about 20 kDa SEQ ID NO: 66]', '8.31 -log10(M)'),
  ('TKFTLSLDVCTNIMNLLFNIAKAKNLRAQAAANAHLMAQI (NES-PEG (about 20 kDa) on Cys 10; C-terminal amide (-NH2)) [Pegylated Cys-variant stresscopin-like peptide with NES linker and PEG about 20 kDa SEQ ID NO: 64]', '~6.98 -log10(M)'),
  ('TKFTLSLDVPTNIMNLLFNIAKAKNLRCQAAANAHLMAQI (NES-PEG (about 20 kDa; MW20000) on Cys 28; C-terminal amide (-NH2)) [Pegylated Cys-variant stresscopin-like peptide with NES linker and PEG about 20 kDa SEQ ID NO: 82]', '8.4 -log10(M)'),
  ('TKFTLSLDVPTNICNLLFNIAKAKNLRAQAAANAHLMAQI-NH2 [Cys-variant stresscopin-like peptide SEQ ID NO: 15]', '8.68 -log10(M)'),
  ('TKFTLSCDVPTNIMNLLFNIAKAKNLRAQAAANAHLMAQI-NH2 [Cys-variant stresscopin-like peptide SEQ ID NO: 8]', '~6.82 -log10(M)');
